The measurements presented in this section are drawn from the supplement of paper PMC11246515.

Method: total protein half-life in vivo (active degradation + dilution); higher = more stable protein
Test parameters: wild type E. coli NCM3722; growth: P-lim chemostat; doubling time 12 h
Endpoint label: total protein half-life in vivo (h)
# value in h; strip the unit string

MSNLTYLQGYPEQLLSQVRTLINEQRLGDVLAKRYPGTHDYATDKALWQYTQDLKNQFLRNAPPINKVMYDNKIHVLKNALGLHTAVSRVQGGKLKAKVEIRVATVFRNAPEPFLRMIVVHELAHLKEKEHNKAFYQLCCHMEPQYHQLEFDTRLWLTQLSLGQNKI | 2.74

Prompt: Query: total protein half-life in vivo; subject: MRIFVYGSLRHKQGNSHWMTNAQLLGDFSIDNYQLYSLGHYPGAVPGNGTVHGEVYRIDNATLAELDALRTRGGEYARQLIQTPYGSAWMYVYQRPVDGLKLIESGDWLDRDK [P0AE48]
Response: 11.5

Prompt: Recorded total protein half-life in vivo for MVKLAFPRELRLLTPSQFTFVFQQPQRAGTPQITILGRLNSLGHPRIGLTVAKKNVRRAHERNRIKRLTRESFRLRQHELPAMDFVVVAKKGVADLDNRALSEALEKLWRRHCRLARGS [P0A7Y8] , please?
Response: 7.12

---

Method: total protein half-life in vivo (active degradation + dilution); higher = more stable protein
Test parameters: wild type E. coli NCM3722; growth: P-lim chemostat; doubling time 6 h
Endpoint label: total protein half-life in vivo (h)
Numbers only; they are read as h.

Would you please look over these solved cases?
MLCVKNVSLRLPESRLLTNVNFTVDKGDIVTLMGPSGCGKSTLFSWMIGALAEQFSCTGELWLNEQRIDILPTAQRQIGILFQDALLFDQFSVGQNLLLALPATLKGNARRNAVNDALERSGLEGAFHQDPATLSGGQRARVALLRALLAQPKALLLDEPFSRLDVALRDNFRQWVFSEVRALAIPVVQVTHDLQDVPADSSVLDMAQWSENYNKLR | 5.99
MYKTIIMPVDVFEMELSDKAVRHAEFLAQDDGVIHLLHVLPGSASLSLHRFAADVRRFEEHLQHEAQERLQTMVSHFTIDPSRIKQHVRFGSVRDEVNELAEELGADVVVIGSRNPSISTHLLGSNASSVIRHANLPVLVVR | 6.06
MTSLYLASGSPRRQELLAQLGVTFERIVTGIEEQRQPQESAQQYVVRLAREKARAGVAQTAKDLPVLGADTIVILNGEVLEKPRDAEHAAQMLRKLSGQTHQVMTAVALADSQHILDCLVVTDVTFRTLTDEDIAGYVASDEPLDKAGAYGIQGLGGCFVRKINGSYHAVVGLPLVETYELLSNFNALREKRDKHDG | 5.41

Turning to the following sequence.
Prompt: Entry MSLINTKIKPFKNQAFKNGEFIEITEKDTEGRWSVFFFYPADFTFVCPTELGDVADHYEELQKLGVDVYAVSTDTHFTHKAWHSSSETIAKIKYAMIGDPTGALTRNFDNMREDEGLADRATFVVDPQGIIQAIEVTAEGIGRDASDLLRKIKAAQYVASHPGEVCPAKWKEGEATLAPSLDLVGKI [P0AE08] : reported total protein half-life in vivo = ?
Response: 5.49

---

The sequences listed here are annotated with their total protein half-life in vivo.
Method: total protein half-life in vivo (active degradation + dilution); higher = more stable protein
Test parameters: E. coli NCM3722 delta-clpP delta-lon delta-hslV; growth: N-lim chemostat; doubling time 6 h
The reply should be a number in h, with the unit left off.

Past entries and their recorded results:
MIAIADILQAGEKLTAVAPFLAGIQNEEQYTQALELVDHLLLNDPENPLLDLVCAKITAWEESAPEFAEFNAMAQAMPGGIAVIRTLMDQYGLTLSDLPEIGSKSMVSRVLSGKRKLTLEHAKKLATRFGISPALFID | 4.71
MIDTTLPLTDIHRHLDGNIRPQTILELGRQYNISLPAQSLETLIPHVQVIANEPDLVSFLTKLDWGVKVLASLDACRRVAFENIEDAARHGLHYVELRFSPGYMAMAHQLPVAGVVEAVIDGVREGCRTFGVQAKLIGIMSRTFGEAACQQELEAFLAHRDQITALDLAGDELGFPGSLFLSHFNRARDAGWHITVHAGEAAGPESIWQAIRELGAERIGHGVKAIEDRALMDFLAEQQIGIESCLTSNIQTSTVAELAAHPLKTFLEHGIRASINTDDPGVQGVDIIHEYTVAAPAAGLSREQIRQAQINGLEMAFLSAEEKRALREKVAAK | 5.4

Prompt: Item under review: MTHDNKLQVEAIKRGTVIDHIPAQIGFKLLSLFKLTETDQRITIGLNLPSGEMGRKDLIKIENTFLSEDQVDQLALYAPQATVNRIDNYEVVGKSRPSLPERIDNVLVCPNSNCISHAEPVSSSFAVRKRANDIALKCKYCEKEFSHNVVLAN [P0A7F3] . Reported total protein half-life in vivo?
Response: 5.57

---

Method: total protein half-life in vivo (active degradation + dilution); higher = more stable protein
Test parameters: wild type E. coli NCM3722; growth: P-lim chemostat; doubling time 12 h
Endpoint label: total protein half-life in vivo

Examples from the recorded data:
MKHTVEVMIPEAEIKARIAELGRQITERYKDSGSDMVLVGLLRGSFMFMADLCREVQVSHEVDFMTASSYGSGMSTTRDVKILKDLDEDIRGKDVLIVEDIIDSGNTLSKVREILSLREPKSLAICTLLDKPSRREVNVPVEFIGFSIPDEFVVGYGIDYAQRYRHLPYIGKVILLDE [P0A9M2] | 12.9 h
MRMNVFEMEGFLRGKCVPRDLKVNETNAEYLVRKFDALEAKCAALENKIIPVSAELPPANESVLLFDANGEGWLIGWRSLWYTWGQKETGEWQWTFQVGDLENVNITHWAVMPKAPEAGA | 5.84 h
MKKIAITCALLSSLVASSVWADAASDLKSRLDKVSSFHASFTQKVTDGSGAAVQEGQGDLWVKRPNLFNWHMTQPDESILVSDGKTLWFYNPFVEQATATWLKDATGNTPFMLIARNQSSDWQQYNIKQNGDDFVLTPKASNGNLKQFTINVGRDGTIHQFSAVEQDDQRSSYQLKSQQNGAVDAAKFTFTPPQGVTVDDQRK | 12.1 h

Prompt: I would be grateful if you could share the reported total protein half-life in vivo for MTDVLLCVGNSMMGDDGAGPLLAEKCAAAPKGNWVVIDGGSAPENDIVAIRELRPTRLLIVDATDMGLNPGEIRIIDPDDIAEMFMMTTHNMPLNYLIDQLKEDIGEVIFLGIQPDIVGFYYPMTQPIKDAVETVYQRLEGWEGNGGFAQLAVEEE [P0AEV9] .
Response: 9.42 h

---

Method: total protein half-life in vivo (active degradation + dilution); higher = more stable protein
Test parameters: E. coli NCM3722 delta-clpP delta-lon delta-hslV; growth: N-lim chemostat; doubling time 6 h
The sequences listed here are annotated with their total protein half-life in vivo.
Field format: number, assumed h, no unit text.

In the examples that follow, each entry is paired with its recorded total protein half-life in vivo.
MAILGLGTDIVEIARIEAVIARSGDRLARRVLSDNEWAIWKTHHQPVRFLAKRFAVKEAAAKAFGTGIRNGLAFNQFEVFNDELGKPRLRLWGEALKLAEKLGVANMHVTLADERHYACATVIIES | 5.28
MGFLSGKRILVTGVASKLSIAYGIAQAMHREGAELAFTYQNDKLKGRVEEFAAQLGSDIVLQCDVAEDASIDTMFAELGKVWPKFDGFVHSIGFAPGDQLDGDYVNAVTREGFKIAHDISSYSFVAMAKACRSMLNPGSALLTLSYLGAERAIPNYNVMGLAKASLEANVRYMANAMGPEGVRVNAISAGPIRTLAASGIKDFRKMLAHCEAVTPIRRTVTIEDVGNSAAFLCSDLSAGISGEVVHVDGGFSIAAMNELELK [P0AEK4] | 5.4
MKYDTSELCDIYQEDVNVVEPLFSNFGGRASFGGQIITVKCFEDNGLLYDLLEQNGRGRVLVVDGGGSVRRALVDAELARLAVQNEWEGLVIYGAVRQVDDLEELDIGIQAMAAIPVGAAGEGIGESDVRVNFGGVTFFSGDHLYADNTGIILSEDPLDIE [P0A8R0] | 5.37

Prompt: Return reported total protein half-life in vivo; argument: `MSEQLVTPENVTTKDGKINLLDLNRQQMREFFKDLGEKPFRADQVMKWMYHYCCDNFDEMTDINKVLRGKLKEVAEIRAPEVVEEQRSSDGTIKWAIAVGDQRVETVYIPEDDRATLCVSSQVGCALECKFCSTAQQGFNRNLRVSEIIGQVWRAAKIVGAAKVTGQRPITNVVMMGMGEPLLNLNNVVPAMEIMLDDFGFGLSKRRVTLSTSGVVPALDKLGDMIDVALAISLHAPNDEIRDEIVPINKKYNIETFLAAVRRYLEKSNANQGRVTIEYVMLDHVNDGTEHAHQLAELLKDTPCKINLIPWNPFPGAPYGRSSNSRIDRFSKVLMSYGFTTIVRKTRGDDIDAACGQLAGDVIDRTKRTLRKRMQGEAIDIKAV`
Response: 4.37

Prompt: Can you look up the measured total protein half-life in vivo of `MKTIHDIRRSNARKLRDGVGGNSSFATMIDREPTQTSRFMGDGATKNIGDSMARHIEKCFDLPVGWLDQEHQTTNITKKPDVSITNKQITLVPVISWVQAGAWKEVGYSEVDLSTAETYPCPVPCGEMTYILRVIGDSMIDEYRPGDMIFVDPEVPACHGDDVIALMHDTGETTFKRLIEDGTQRYLKALNPNWPEPYIKINGNCSIIGTVIFSGKPRRYKIKA` for me?
Response: 5.24

Prompt: Report total protein half-life in vivo for MAKVLVLYYSMYGHIETMARAVAEGASKVDGAEVVVKRVPETMPPQLFEKAGGKTQTAPVATPQELADYDAIIFGTPTRFGNMSGQMRTFLDQTGGLWASGALYGKLASVFSSTGTGGGQEQTITSTWTTLAHHGMVIVPIGYAAQELFDVSQVRGGTPYGATTIAGGDGSRQPSQEELSIARYQGEYVAGLAVKLNG [P0A8G6] please.
Response: 5.48

Prompt: What does the data say about its total protein half-life in vivo? Entry: `MKHDHFVVQSPDKPAQQLLLLFHGVGDNPVAMGEIGNWFAPLFPDALVVSVGGAEPSGNPAGRQWFSVQGITEDNRQARVDAIMPTFIETVRYWQKQSGVGANATALIGFSQGAIMVLESIKAEPGLASRVIAFNGRYASLPETASTATTIHLIHGGEDPVIDLAHAVAAQEALISAGGDVTLDIVEDLGHAIDNRSMQFALDHLRYTIPKHYFDEALSGGKPGDDDVIEMM`
Response: 4.73

Prompt: Request the reported total protein half-life in vivo associated with MQWQTKLPLIAILRGITPDEALAHVGAVIDAGFDAVEIPLNSPQWEQSIPAIVDAYGDKALIGAGTVLKPEQVDALARMGCQLIVTPNIHSEVIRRAVGYGMTVCPGCATATEAFTALEAGAQALKIFPSSAFGPQYIKALKAVLPSDIAVFAVGGVTPENLAQWIDAGCAGAGLGSDLYRAGQSVERTAQQAAAFVKAYREAVQ [Q6BF16]
Response: 4.76
